Tested on: 598228-144-R-J1-PDC complex spheroid viability
assay-method-text: Anticancer human tumor 598228-144-R-J1-PDC patient-derived serous endometrial adenocarcinoma cell line growth inhibition [GQUAD]
condition-summary: second compound 1 µM; first compound 1 µM; hits give low values
# reported viability, T/C; entries follow

compound | tgt | viability, T/C (%)
CC1COCCN1c1cc(-c2ccnn2C)c2ccnc(-c3ccn[nH]3)c2n1 (stereo unspecified) + Cc1cnc(CNC(=O)c2c(=O)c3ccc(N4CCCN(C)CC4)nc3n3c2sc2ccccc23)cn1 | 598228-144-R-J1-PDC complex spheroid viability | 33
CC(C)(O)C1CCC(Nc2ccc3ncc(-c4cccc(C(F)(F)F)c4)n3n2)CC1 (stereo unspecified) + CN(C)c1ccc(Nc2c3ccc(NC(=O)CCN4CCCC4)cc3nc3cc(NC(=O)CCN4CCCC4)ccc23)cc1 | 598228-144-R-J1-PDC complex spheroid viability | 79
COc1cc(C2c3cc4c(cc3C(OC3OC5COC(C)OC5C(O)C3O)C3COC(=O)C23)OCO4)cc(OC)c1O (stereo unspecified) + CN(C)c1ccc(Nc2c3ccc(NC(=O)CCN4CCCC4)cc3nc3cc(NC(=O)CCN4CCCC4)ccc23)cc1 | 598228-144-R-J1-PDC complex spheroid viability | 55.9
O=c1[nH]cc(F)c(=O)[nH]1 + Cc1[nH]c2ccc(F)cc2c1-c1nc2c3cccnc3c3ncccc3c2[nH]1 | 598228-144-R-J1-PDC complex spheroid viability | 55.5
C#Cc1c(F)ccc2cc(O)cc(-c3ncc4c(N5CC6CCC(C5)N6)nc(OCC56CCCN5CC(F)C6)nc4c3F)c12 (stereo unspecified) + Cc1[nH]c2ccc(F)cc2c1-c1nc2c3cccnc3c3ncccc3c2[nH]1 | 598228-144-R-J1-PDC complex spheroid viability | 59.7
Cc1cccc(N(C)C(=O)C2C(O)CCN2c2nc(C)cc(C(F)(F)F)c2C#N)c1 (stereo unspecified) + Cc1cnc(CNC(=O)c2c(=O)c3ccc(N4CCCN(C)CC4)nc3n3c2sc2ccccc23)cn1 | 598228-144-R-J1-PDC complex spheroid viability | 61.9
Nc1ccn(C2OC(CO)C(O)C2(F)F)c(=O)n1 (stereo unspecified) + Cc1cnc(CNC(=O)c2c(=O)c3ccc(N4CCCN(C)CC4)nc3n3c2sc2ccccc23)cn1 | 598228-144-R-J1-PDC complex spheroid viability | 39.7
CC(C)(O)C1CCC(Nc2ccc3ncc(-c4cccc(C(F)(F)F)c4)n3n2)CC1 (stereo unspecified) + Cc1cnc(CNC(=O)c2c(=O)c3ccc(N4CCCN(C)CC4)nc3n3c2sc2ccccc23)cn1 | 598228-144-R-J1-PDC complex spheroid viability | 65.8
CCCS(=O)(=O)Nc1ccc(F)c(C(=O)c2c[nH]c3ncc(-c4ccc(Cl)cc4)cc23)c1F + CN(C)c1ccc(Nc2c3ccc(NC(=O)CCN4CCCC4)cc3nc3cc(NC(=O)CCN4CCCC4)ccc23)cc1 | 598228-144-R-J1-PDC complex spheroid viability | 133
C=CCn1c(=O)c2cnc(Nc3ccc(N4CCN(C)CC4)cc3)nc2n1-c1cccc(C(C)(C)O)n1 + Cc1[nH]c2ccc(F)cc2c1-c1nc2c3cccnc3c3ncccc3c2[nH]1 | 598228-144-R-J1-PDC complex spheroid viability | 48.7
COc1ncnc(C2CC2)c1-c1ncc2cnn(Cc3ccc(-c4nc(C(F)(F)F)cn4C(C)C)cc3)c2n1 + Cc1[nH]c2ccc(F)cc2c1-c1nc2c3cccnc3c3ncccc3c2[nH]1 | 598228-144-R-J1-PDC complex spheroid viability | 58
O=C(c1cc(Cc2n[nH]c(=O)c3ccccc23)ccc1F)N1CCN(C(=O)C2CC2)CC1 + Cc1[nH]c2ccc(F)cc2c1-c1nc2c3cccnc3c3ncccc3c2[nH]1 | 598228-144-R-J1-PDC complex spheroid viability | 67.1
O=C(c1cc(Cc2n[nH]c(=O)c3ccccc23)ccc1F)N1CCN(C(=O)C2CC2)CC1 + Cc1cnc(CNC(=O)c2c(=O)c3ccc(N4CCCN(C)CC4)nc3n3c2sc2ccccc23)cn1 | 598228-144-R-J1-PDC complex spheroid viability | 54.1
CC(C)n1c(=O)n(C)c2cnc3cc(F)c(-c4ccc(OCCCN5CCCCC5)nc4)cc3c21 + Cc1[nH]c2ccc(F)cc2c1-c1nc2c3cccnc3c3ncccc3c2[nH]1 | 598228-144-R-J1-PDC complex spheroid viability | 60.6
Nc1ccn(C2OC(CO)C(O)C2(F)F)c(=O)n1 (stereo unspecified) + Cc1[nH]c2ccc(F)cc2c1-c1nc2c3cccnc3c3ncccc3c2[nH]1 | 598228-144-R-J1-PDC complex spheroid viability | 36.3
C=CC(=O)N1CCN(c2nc(=O)n(-c3c(C)ccnc3C(C)C)c3nc(-c4c(O)cccc4F)c(F)cc23)C(C)C1 (stereo unspecified) + Cc1cnc(CNC(=O)c2c(=O)c3ccc(N4CCCN(C)CC4)nc3n3c2sc2ccccc23)cn1 | 598228-144-R-J1-PDC complex spheroid viability | 83
CC1COCCN1c1cc(-c2ccnn2C)c2ccnc(-c3ccn[nH]3)c2n1 (stereo unspecified) + CN(C)c1ccc(Nc2c3ccc(NC(=O)CCN4CCCC4)cc3nc3cc(NC(=O)CCN4CCCC4)ccc23)cc1 | 598228-144-R-J1-PDC complex spheroid viability | 50
COc1cccc2c1C(=O)c1c(O)c3c(c(O)c1C2=O)CC(O)(C(=O)CO)CC3OC1CC(N)C(O)C(C)O1 (stereo unspecified) + Cc1cnc(CNC(=O)c2c(=O)c3ccc(N4CCCN(C)CC4)nc3n3c2sc2ccccc23)cn1 | 598228-144-R-J1-PDC complex spheroid viability | 23.8
CC1COCCN1c1cc(C2(S(C)(=N)=O)CC2)nc(-c2ccnc3[nH]ccc23)n1 (stereo unspecified) + Cc1[nH]c2ccc(F)cc2c1-c1nc2c3cccnc3c3ncccc3c2[nH]1 | 598228-144-R-J1-PDC complex spheroid viability | 40.5
CC(=O)O[C@H]1C(=O)[C@@]2(C)[C@H]([C@H](OC(=O)c3ccccc3)[C@]3(O)C[C@H](OC(=O)[C@H](O)[C@@H](NC(=O)c4ccccc4)c4ccccc4)C(C)=C1C3(C)C)[C@]1(OC(C)=O)CO[C@@H]1C[C@@H]2O + CN(C)c1ccc(Nc2c3ccc(NC(=O)CCN4CCCC4)cc3nc3cc(NC(=O)CCN4CCCC4)ccc23)cc1 | 598228-144-R-J1-PDC complex spheroid viability | 42.1
CCCS(=O)(=O)Nc1ccc(F)c(C(=O)c2c[nH]c3ncc(-c4ccc(Cl)cc4)cc23)c1F + Cc1[nH]c2ccc(F)cc2c1-c1nc2c3cccnc3c3ncccc3c2[nH]1 | 598228-144-R-J1-PDC complex spheroid viability | 76

* * *

Test system: 598228-144-R-J1-PDC complex spheroid viability
assay-method-text: Anticancer human tumor 598228-144-R-J1-PDC cell line growth inhibition [GQUAD];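 note: spheroids exposed to the agents for one week before reading; percent of vehicle DMSO control viability so 100% = untreated growth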
condition-summary: second compound 10 µM; first compound 0.00999 µM; hits give low values
Label MET when viability, T/C is strictly below 50%; otherwise label NOT MET.

compound | label-value
Cc1[nH]c2ccccc2c1CCNCc1ccc(/C=C/C(=O)NO)cc1 + CN(C)c1ccc(Nc2c3ccc(NC(=O)CCN4CCCC4)cc3nc3cc(NC(=O)CCN4CCCC4)ccc23)cc1 | NOT MET
CC[C@@]1(O)C(=O)OCc2c1cc1n(c2=O)Cc2cc3c(CN(C)C)c(O)ccc3nc2-1 + Cc1[nH]c2ccc(F)cc2c1-c1nc2c3cccnc3c3ncccc3c2[nH]1 | NOT MET
CCc1c2c(nc3ccc(O)cc13)-c1cc3c(c(=O)n1C2)COC(=O)[C@]3(O)CC + CN(C)c1ccc(Nc2c3ccc(NC(=O)CCN4CCCC4)cc3nc3cc(NC(=O)CCN4CCCC4)ccc23)cc1 | MET
CC[C@@]1(O)C(=O)OCc2c1cc1n(c2=O)Cc2cc3c(CN(C)C)c(O)ccc3nc2-1 + CN(C)c1ccc(Nc2c3ccc(NC(=O)CCN4CCCC4)cc3nc3cc(NC(=O)CCN4CCCC4)ccc23)cc1 | NOT MET
Cn1ncnc1[C@H]1c2n[nH]c(=O)c3cc(F)cc(c23)N[C@@H]1c1ccc(F)cc1 + CN(C)c1ccc(Nc2c3ccc(NC(=O)CCN4CCCC4)cc3nc3cc(NC(=O)CCN4CCCC4)ccc23)cc1 | NOT MET
Cn1ncnc1[C@H]1c2n[nH]c(=O)c3cc(F)cc(c23)N[C@@H]1c1ccc(F)cc1 + Cc1[nH]c2ccc(F)cc2c1-c1nc2c3cccnc3c3ncccc3c2[nH]1 | NOT MET
Cc1[nH]c2ccccc2c1CCNCc1ccc(/C=C/C(=O)NO)cc1 + Cc1[nH]c2ccc(F)cc2c1-c1nc2c3cccnc3c3ncccc3c2[nH]1 | NOT MET
CCc1c2c(nc3ccc(O)cc13)-c1cc3c(c(=O)n1C2)COC(=O)[C@]3(O)CC + Cc1[nH]c2ccc(F)cc2c1-c1nc2c3cccnc3c3ncccc3c2[nH]1 | MET
CC[C@@]1(O)C(=O)OCc2c1cc1n(c2=O)Cc2cc3c(CN(C)C)c(O)ccc3nc2-1 + Cc1cnc(CNC(=O)c2c(=O)c3ccc(N4CCCN(C)CC4)nc3n3c2sc2ccccc23)cn1 | MET
